assay: Cytotoxicity by live imaging (Hoechst 33342 / propidium iodide)
Type: cell-based
condition: mouse
Method: The cytotoxicity of the compounds to BALB/3T3 cells was determined using live imaging following both Hoechst 33342 and propidium iodide staining. […] The cytotoxicity was defined based on the ratio of the population of dead or dying cells (propidium iodide staining) to the total cell population (Hoechst staining), as determined using Columbus software 2.9.1 (PerkinElmer Informatics, WA, USA). […]
value_type: CC50 (µM)
Express it in µM; write the number only.

input: Reported CC50 for C=C1CC[C@H]2C(=C)C(=O)O[C@@H]2[C@@H]2O[C@]2(C)CC[C@H]1N(O)C(=O)Nc1ccc2c(c1)OCO2 [Compound 10] : what is it?
output: 12.5

Now for a further compound.
input: Please report the recorded CC50 for C=C1CC[C@H]2C(=C)C(=O)O[C@@H]2[C@@H]2O[C@]2(C)CC[C@H]1N(O)C(=O)Nc1ccc(OC)cc1 [Compound 7] .
output: 25

----------
assay: Cytotoxicity by live imaging (Hoechst 33342 / propidium iodide)
Format: cell-based
condition: mouse
Entries and their CC50

Sample records with CC50:
input: Param item = C=C1C(=O)O[C@H]2[C@H]1CC/C(C)=C/CC[C@@]1(C)O[C@@H]21 [Compound 1, Parthenolide] ; retrieve measured CC50.
output: > 100 µM

input: What value of CC50 has been reported for the following molecule? C=C1CC[C@H]2C(=C)C(=O)O[C@@H]2[C@@H]2O[C@]2(C)CC[C@H]1N(O)C(=O)Nc1ccccc1 [Compound 4]
output: 25 µM

input: Could you tell me which CC50 is on file for C=C1CC[C@H]2C(=C)C(=O)O[C@@H]2[C@@H]2O[C@]2(C)CC[C@H]1N(O)C(=O)NCc1ccccc1 [Compound 6] ?
output: > 25 µM

input: # get_value(readout='CC50', item= C=C1CC[C@H]2C(=C)C(=O)O[C@@H]2[C@@H]2O[C@]2(C)CC[C@H]1N(O)C(=O)NCCCOCC [Compound 11] )
output: > 100 µM

input: Which measured CC50 value corresponds to C=C1CC[C@H]2C(=C)C(=O)O[C@@H]2[C@@H]2O[C@]2(C)CC[C@H]1N(O)C(=O)Nc1ccc(F)cc1 [Compound 8] ?
output: > 25 µM

Shift focus to the following entry.
input: Can you look up the measured CC50 of C=C1CC[C@H]2C(=C)C(=O)O[C@@H]2[C@@H]2O[C@]2(C)CC[C@H]1N(O)C(=O)Nc1ccc(C)cc1 [Compound 5] for me?
output: 12.5 µM

----------
# MIC per record follows
Tested on: M. tuberculosis H37Rv expressing GFP (H37Rv::pJKD6)
assay: microbe, parasite or virus in culture
Assay type: cell-based, Mycobacterium tuberculosis
condition: Mycobacterium tuberculosis, H37RV, 168 h; read-out: MIC98 M. tuberculosis (GFP)

Example entries and their recorded answers appear below.
input: If you can, please state the reported MIC value of `C=C1CC[C@H]2C(=C)C(=O)O[C@@H]2[C@@H]2O[C@]2(C)CC[C@H]1N(O)C(=O)NCc1ccccc1` .
output: 19 to 38 µM

input: Query (molecule): `C=C1CC[C@H]2C(=C)C(=O)O[C@@H]2[C@@H]2O[C@]2(C)CC[C@H]1N(O)C(=O)Nc1ccccc1` ; field requested: MIC
output: 9.4 to 19 µM

input: Which MIC is reported for this molecule? `C=C1CC[C@H]2C(=C)C(=O)O[C@@H]2[C@@H]2O[C@]2(C)CC[C@H]1N(O)C(=O)OCCOC`
output: 150 to 300 µM

input: What measured MIC goes with `C=C1CC[C@H]2C(=C)C(=O)O[C@@H]2[C@@H]2O[C@]2(C)CC[C@H]1N(O)C(N)=O` ?
output: 75 to 150 µM

input: Tell me the measured MIC of CO[C@H]1/C=C/O[C@@]2(C)Oc3c(C)c(O)c4c(O)c(c(/C=N/N5CCN(C)CC5)c(O)c4c3C2=O)NC(=O)/C(C)=C\C=C\[C@H](C)[C@H](O)[C@@H](C)[C@@H](O)[C@@H](C)[C@H](OC(C)=O)[C@@H]1C [Rifampicin, reference compound] , please.
output: < 2.3 µM

In the following, a different molecule is considered.
input: Param item = C=C1C(=O)O[C@H]2[C@H]1CC/C(C)=C/CC[C@@]1(C)O[C@@H]21 [Compound 1, Parthenolide] ; retrieve measured MIC.
output: 9.4 to 19 µM

Every entry's value here was drawn from paper PMC10744032.
